Values compiled from the supplement of paper PMC10567573.

B1: ZNF649 (parent)
chain: LTEHKRIHTGKKPHVCSLCGKAFY

Variants of: B1
Test: protein stability index of a GFP-peptide fusion (GPS, HEK-293T) (PSI 1-6); higher = more stable;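 note: lentivirally expressed fusions sorted by FACS into six bins by GFP to DsRed ratio, PSI derived from sequencing read proportions per bin multiplied by bin number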
Conditions: c terminus: a fixed tail appended
# reported protein stability index; entries follow
assay.readout: protein stability index

{"residue.change": "A22V", "assay.readout": "protein stability index", "measured.value": 2.85}
{"residue.change": "H14M", "assay.readout": "protein stability index", "measured.value": 2.86}
{"residue.change": "H8E", "assay.readout": "protein stability index", "measured.value": 3.25}
{"residue.change": "E3V", "assay.readout": "protein stability index", "measured.value": 2.23}
